These measurements were taken from patent US20240252488A1.

Test system: FADD−/− Jurkat cells
Experimental protocol: Necroptosis inhibition assay, TNF-α-induced necroptosis (CellTiter-Glo 2.0)
Assay type: cell-based, human
Setup conditions: compound 1 μM; TNF-α 15 ng/mL
Observation type: Necroptosis inhibition assay (Rescue %) 1 μM
Answers are plain numbers, in %.

Please look up its Necroptosis inhibition assay (Rescue %) 1 μM: Nc1ncc(-c2cnn(C3CN(CC4CCN(C(=O)COc5ccc6c(c5)C(=O)N(C5CCC(=O)NC5=O)C6=O)CC4)C3)c2)nc1C(=O)OC(C(=O)Nc1ccc(F)cc1)c1ccccc1 (centres unmarked)
75.61

Name the recorded Necroptosis inhibition assay (Rescue %) 1 μM for Nc1ncc(-c2cnn(C3CCN(CCOCCOCCNc4cccc5c4C(=O)N(C4CCC(=O)NC4=O)C5=O)CC3)c2)nc1C(=O)N[C@@H](C(=O)Nc1ccc(F)cc1)c1ccccc1 (some centres unmarked) .
15.33

# lookup: Necroptosis inhibition assay (Rescue %) 1 μM of Nc1ncc(-c2cnn(C3CCN(CC4CN(c5ccc6c(c5)C(=O)N(C5CCC(=O)NC5=O)C6=O)CCO4)CC3)c2)nc1C(=O)OC(C(=O)Nc1ccc(F)cc1)c1ccccc1 (centres unmarked)
57.09

What measured Necroptosis inhibition assay (Rescue %) 1 μM goes with Nc1ncc(-c2cnn(C3CCN(C(=O)c4cn(C5CCN(C(=O)CNc6ccc7c(c6)C(=O)N(C6CCC(=O)NC6=O)C7=O)CC5)cn4)CC3)c2)nc1C(=O)O[C@@H](C(=O)Nc1ccc(F)cc1)c1ccccc1 (some centres unmarked) ?
19.10

// moving on: another record for Necroptosis inhibition assay (Rescue %) 1 μM
Suppose we examine the molecule Nc1ncc(-c2cnn(C3CCN(CCC4CCN(c5ccc6c(c5)C(=O)N(C5CCC(=O)NC5=O)C6=O)CC4)CC3)c2)nc1C(=O)O[C@@H](C(=O)Nc1ccc(F)cc1)c1ccccc1 (some centres unmarked) ; what Necroptosis inhibition assay (Rescue %) 1 μM value has been reported?
64.32
